From: PubChem BioAssay

- methodSummary: RAM signaling pathway blockade in yeast – S. cerevisiae, Pdr1DBD-CYC8 efflux-inhibited sensitized strain, primary screen (AID 1298);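 also: 0% = DMSO untreated cells without growth and 100% = 10 µM 1-NA-PP1 full growth; higher means more yeast growth rescued from 5-FOA killing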
- runConditions: S. cerevisiae cbk1-as DSE1-URA3 strain, 5-FOA growth OD615, 2 d; at 50 µM; active compounds read high
Catalogue of RAM network inhibition values
State the answer as a number, implicitly in %.

Here are 8 compounds together with their reported answers.
O=C(C(Cc1ccccc1)n1cccc1)N1CCCCCC1 (stereo unspecified)    2.67
COc1cccc(N(C(C)=O)c2nc(C)cc(C)c2C#N)c1    2.39
O=C(c1ccc(S(=O)(=O)N2CCCCC2)cc1)N1CCN=C1SCc1cccnc1    4.85
COc1c(S(=O)(=O)n2nc(C)cc2C)ccc(Cl)c1Cl    2.6
COC(=O)c1ccc(-c2nc(-c3ccc(Br)o3)no2)cc1    1.84
Cc1cc(C)n(-c2cc(N3CCOCC3)ncn2)n1    2.04
COc1ccc(CCNC(=O)CSc2nnnn2-c2ccccc2OC)cc1OC    6.51
CCCc1cc(C(=O)NCCc2ccc(OC)c(OC)c2)no1    3.29

Entry COc1ccccc1NC(=O)N1CCN(c2cccc(C(F)(F)F)c2)CC1 has what RAM network inhibition?
2.91

Sample CCOC(=O)N1CCN(C(=O)c2c(-c3ccccc3)noc2C)CC1 — what was its RAM network inhibition?
4.25

// lookup RAM network inhibition for CCOC(=O)C1CCN(Cc2ccc(OC)c(C)c2OC)CC1
1.41

###

- methodSummary: S. cerevisiae growth inhibition in restrictive medium, OD615, pilot screen, restrictive growth control, yeast lifespan reduction project (AID 706);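 also: modified DeaD lifespan yeast strain shifted to restrictive glucose medium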
- runConditions: OD615, 48 h, at 10 µM
Activity calls are given as the source filed them.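 How the source made its calls: active means growth inhibition above a set limit, 3 SD over mean compound inhibition, in both replicates (cut at about 43% in these data); inconclusive means above the limit in only one replicate; inactive means at or below the limit in both replicates.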
Would you mind answering with one of these outcomes? T (active), F (inactive)

CCOc1ccc(C2CC(c3cccc(OC)c3)Nc3ncnn32)cc1 (stereo unspecified)    F
CC(=O)c1ccc(NC(=O)C2CCN(S(=O)(=O)c3cccc4cccnc34)CC2)cc1    F
COCCN(CCOC)c1ncnc2c1cnn2-c1ccccc1    F
COc1ccc(C2C(C(C)=O)=C(C)N=c3s/c(=C/c4ccc5c(c4)OCO5)c(=O)n32)cc1 (stereo unspecified)    F
Cc1ccc(-n2ncc3c(=O)n(CC(=O)NCc4ccco4)cnc32)cc1C    F

Assay result, entry CCn1c(SCC(=O)Nc2cc(C)ccc2C)nc2c(c1=O)SC(C)C2 (stereo unspecified) — outcome?
F

Call for entry COc1ccccc1NC(=O)CSc1ncn[nH]1 :
F

Look up the recorded call for O=C(CCc1nc2ccccc2[nH]1)Nc1ccc2c(c1)OCCO2 in this test.
F

Tell me the recorded outcome of this test for CCCCn1c(CN2CCN(c3ccc(F)cc3)CC2)nc2c1c(=O)n(C)c(=O)n2C .
F

What outcome does the record of this test show for O=P(O)(CN1CCCCC1)C1CCCCC1O (stereo unspecified) ?
F

Please state the recorded outcome for this compound: Oc1cccc(C=NCc2ccccc2)c1O
T

###

- methodSummary: S. cerevisiae growth inhibition in permissive medium (OD615), pilot counter-assay for S. cerevisiae lifespan shortening project, permissive growth control (AID 705)
- runConditions: OD615, 24 h, at 10 µM, active compounds read high
Each entry below lists one item and its recorded growth inhibition value.
The reply should contain only the number, in %.

Here are 2 molecules together with their reported answers.
Cc1cc(C)cc(N2C(=O)CC(N3CCOCC3)C2=O)c1 (stereo unspecified)    -9.16
Cc1occc1C(=O)NCc1cccs1    -6.07

So what does the record say about growth inhibition for Cc1ccc(-n2ncc3c(=O)n(CC(=O)NCc4ccco4)cnc32)cc1C ?
-5.52

Reported growth inhibition for O=C(CSc1nc2c(cnn2-c2ccc(F)cc2)c(=O)[nH]1)N1CCCCCC1 : what is it?
-3.72

# input molecule: CCCCn1c(NCc2ccccc2O)nc2ccccc21 ; wanted: its growth inhibition
-1.67

Could you tell me which growth inhibition is on file for CC(=O)N1c2c(cc(Br)cc2S(=O)(=O)NCC2COc3ccccc3O2)CC1C (stereo unspecified) ?
-0.935

Fill blank: measured growth inhibition of the molecule O=C(CN1CCN(Cc2ccccc2F)C1=O)NCc1cccnc1 is ____.
2.81

Which value of growth inhibition has been reported for CCOCCOc1nc2c(c(=O)n(C)c(=O)n2C)n1Cc1ccc(C)cc1 in the records?
3.97
